pIC50: −log10 of the molar value.
Vascular endothelial growth factor receptor 2 (Homo sapiens) pIC50, compiled from various sources.

# example entries with known answers
>>> print(df.to_string())
                                   compound        result
0  N#Cc1ccnc2[nH]cc(C(=O)c3c(F)ccc(NS(=O)(=O)c4ccc(C(F)(F)F)cc4)c3F)c12        < 5.00
1  CCC(C)S(=O)(=O)Nc1ccc(F)c(C(=O)c2c[nH]c3nccc(C#N)c23)c1F (centres unmarked)        ≥ 5.00
2  CCN(CC)S(=O)(=O)Nc1ccc(F)c(C(=O)c2c[nH]c3nccc(OC)c23)c1F        ≥ 5.00
3  COc1cnc2[nH]cc(C(=O)c3c(F)ccc(NS(C)(=O)=O)c3F)c2c1        ≥ 5.00
4  NC(=O)c1cc2c(Oc3ccc(NC(=O)NC4CC4)c(Cl)c3)ccnc2cc1OCCCN1CCOCC1          8.05
5  O=C(Nc1ccc(Cl)c(C(=O)Nc2cnc(Nc3ccc(S(=O)(=O)C4CCNCC4)cc3)nc2)c1)c1cc(C(F)(F)F)ccc1F          7.65
6  COc1cc2nccc(Oc3ccc4oc(C(=O)NC5CC5)cc4c3)c2cc1C(N)=O  6.00 to 6.70

query: Observed pIC50 on Vascular endothelial growth factor receptor 2 (Homo sapiens) for Cc1cc(Oc2cc(NC(=O)C3CC3)ncn2)ccc1NC(=O)Nc1ccc(F)c(C(F)(F)F)c1 , please.
result: 7.96
